Target: T1, human PD-L2 antigen (Homo sapiens, UniProt Q9BQ51)
T1 sequence (Q9BQ51 20-273): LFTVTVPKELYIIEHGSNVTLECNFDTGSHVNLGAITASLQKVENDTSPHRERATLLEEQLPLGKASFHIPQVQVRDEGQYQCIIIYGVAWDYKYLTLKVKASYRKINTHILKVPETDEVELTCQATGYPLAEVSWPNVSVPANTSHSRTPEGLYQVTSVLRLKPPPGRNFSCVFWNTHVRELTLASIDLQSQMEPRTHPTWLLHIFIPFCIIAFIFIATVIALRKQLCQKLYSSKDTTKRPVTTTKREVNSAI
Test: Single cycle kinetics on Biacore 8K, binding to human PD-L2 antigen
Conditions: Table 2, cell culture supernatants
result-type: kd (s⁻¹)

[
  {
    "molecule": "VH6/VK1: humanized anti-PD-L2 variant; SEQ ID NO: 6/SEQ ID NO: 10 (antibody, V domains shown) VH: QVQLVQSGAEVKKPGSSVKVSCKASGYSFSNYFIEWVKQPPGKGLEWIGLNIPGSGGSNYAEKFKGRVTITADKSTSTAYMELSSLRSEDTAVYYCARRRLPPDWYFDVWGQGTTVTVSS VL: DVVMTQSPLSLPVTLGQPASISCRSSQSLVHSDGNTYLHWYQQKPGQPPKLLIYKVSNRFSGVPDRFSGSGSGTDFTLKISRVEAEDVGVYFCSQSTHVPWTFGGGTKVEIK",
    "uom": "s⁻¹",
    "reading": 0.000121
  }
]
